Hey, just so you know, these numbers are from patent US20160185837A1.

- test.target: human glucagon receptor (human) (UniProt P47871)
- Sequence (P47871 26-477): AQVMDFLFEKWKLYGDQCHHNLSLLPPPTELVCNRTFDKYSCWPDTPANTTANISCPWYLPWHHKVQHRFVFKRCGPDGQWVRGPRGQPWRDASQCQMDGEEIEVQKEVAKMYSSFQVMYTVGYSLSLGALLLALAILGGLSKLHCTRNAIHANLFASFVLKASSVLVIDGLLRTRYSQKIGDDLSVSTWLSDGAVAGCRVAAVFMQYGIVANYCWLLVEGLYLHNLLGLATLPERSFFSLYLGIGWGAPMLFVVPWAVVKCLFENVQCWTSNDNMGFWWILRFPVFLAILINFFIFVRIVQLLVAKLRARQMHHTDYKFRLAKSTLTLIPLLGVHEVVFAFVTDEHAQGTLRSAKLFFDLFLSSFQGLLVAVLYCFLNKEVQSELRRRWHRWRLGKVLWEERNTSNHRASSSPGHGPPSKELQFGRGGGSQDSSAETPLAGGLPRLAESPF
- test.summary: cell-based or functional assay
Listed next: entries and their corresponding log10 cAMP EC50.
Each number you see is log10 of cAMP EC50, and the unit inside the log is nM.

Ask | // log10 cAMP EC50 lookup, key: IP380 (Fc fusion) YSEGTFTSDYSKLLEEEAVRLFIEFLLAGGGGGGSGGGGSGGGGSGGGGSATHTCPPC
Reply | 1.40

Ask | // log10 cAMP EC50 lookup, key: IP321 (Fc fusion) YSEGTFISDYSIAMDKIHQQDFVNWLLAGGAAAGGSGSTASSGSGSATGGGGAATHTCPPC
Reply | 1.38

Ask | // log10 cAMP EC50 lookup, key: IP359 (Fc fusion) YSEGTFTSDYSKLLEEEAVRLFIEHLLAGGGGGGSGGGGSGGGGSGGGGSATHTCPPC
Reply | 1.63

Ask | // log10 cAMP EC50 lookup, key: IP310 (Fc fusion) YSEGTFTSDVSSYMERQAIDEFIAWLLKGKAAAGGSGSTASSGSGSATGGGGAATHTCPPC
Reply | 3.57

Ask | // log10 cAMP EC50 lookup, key: IP302 (Fc fusion) YSEGTFISDYSIALAAAAQQDFVNWLLAGGGGGGGSGGGGSGGGGSGGGGSATHTCPPC
Reply | 3.08

Ask | // log10 cAMP EC50 lookup, key: IP306 (Fc fusion) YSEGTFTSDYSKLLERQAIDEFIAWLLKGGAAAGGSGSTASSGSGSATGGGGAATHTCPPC
Reply | 2.34
